Entry source: patent US20260258084A1

Molecular target: T1, IL-23 receptor on the surface of HEK-Blue IL-23 cells (UniProt Q5VWK5 24-629, limits assumed)
T1 sequence (looked up): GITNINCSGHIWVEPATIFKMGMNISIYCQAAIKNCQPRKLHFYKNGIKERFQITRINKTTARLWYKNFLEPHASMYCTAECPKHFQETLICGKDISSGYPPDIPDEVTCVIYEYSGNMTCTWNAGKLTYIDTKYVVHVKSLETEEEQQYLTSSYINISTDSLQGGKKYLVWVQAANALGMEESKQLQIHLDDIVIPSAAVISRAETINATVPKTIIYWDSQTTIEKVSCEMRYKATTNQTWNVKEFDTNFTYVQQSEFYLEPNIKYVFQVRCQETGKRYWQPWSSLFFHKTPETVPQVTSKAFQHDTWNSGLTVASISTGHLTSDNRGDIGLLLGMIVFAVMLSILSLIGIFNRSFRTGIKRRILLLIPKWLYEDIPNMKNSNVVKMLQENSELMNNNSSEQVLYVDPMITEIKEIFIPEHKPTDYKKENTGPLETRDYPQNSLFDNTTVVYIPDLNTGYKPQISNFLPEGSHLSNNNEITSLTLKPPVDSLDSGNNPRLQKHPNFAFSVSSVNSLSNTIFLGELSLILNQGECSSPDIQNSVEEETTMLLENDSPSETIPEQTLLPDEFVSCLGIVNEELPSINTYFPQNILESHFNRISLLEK
Assay: cell-based or functional assay
Starred links: 1 amine or outer side, 2 acyl side, 3 side chain; linkers in the order of their positions; H or OH if unused. Positions of bridges follow the written chain, without caps; N, C: chain ends. Non-standard residues stand in square brackets, D forms with d. No end group written: not given here. Yde = (2S)-2-amino-3-[4-[2-(dimethylamino)ethoxy]phenyl]propanoic acid, CN(C)CCOc1ccc(C[C@H](N[*:1])C(=O)[*:2])cc1; 2Nal = N[C@@H](Cc1ccc2ccccc2c1)C(=O)O; εLys = N[C@@H](CCCCN[*:1])C(=O)[*:2]; AEF = NCCOc1ccc(C[C@H](N)C(=O)O)cc1; Nmapt = not defined here; Thp = NC1(C(=O)O)CCOCC1; Aib = CC(C)(N)C(=O)O; Ava = NCCCCC(=O)O
experimental_readout: pSTAT3 (nM)
Return type: number; implicit unit nM.

Solved cases (2 shown):
[Ava]C[εLys](Ac)WQC[Yde][2Nal][Thp]ENG-NH2 (lactam N-10; disulfide 2-6; also: Cys2 carboxyl bonded to Lys3 epsilon-NH2 (isopeptide), Lys3 alpha-N acetylated) [Compound of SEQ ID NO: 30] = 5.41
[Nmapt]CKWQC[AEF][2Nal][Aib]ENN-NH2 (lactam N-10; disulfide 2-6; not fully specified (residue 3); printed as Nmapt(§1)-C(§3)(@2)-K[aAc](@3)-W-Q-C(@2)-Yae-Nal-Aib-E(§1)-N—N—NH2; reading uncertain; also: K[aAc]: Cys2 bonded to epsilon-NH2 of acetylated Lys3, acetyl presumably on alpha-amine) [Compound of SEQ ID NO: 12] = 27.9

Below: the item to evaluate.
query: State the recorded pSTAT3 (nM) for this entry: [Ava]CNTWQC[Yde][2Nal][Aib]ENN-NH2 (lactam (positions not given here); disulfide 2-7; not fully specified (bridges); printed as Apt(§1)-C(@2)-N-T-W-Q-C(@2)-Yde-Nal-Aib-E(§1)-N—N—NH2) [Compound of SEQ ID NO: 8]
result: 5.54
